# ASSAY_SYSTEM: Protein cereblon (Homo sapiens, UniProt Q96SW2)
# Sequence (Q96SW2 whole entry): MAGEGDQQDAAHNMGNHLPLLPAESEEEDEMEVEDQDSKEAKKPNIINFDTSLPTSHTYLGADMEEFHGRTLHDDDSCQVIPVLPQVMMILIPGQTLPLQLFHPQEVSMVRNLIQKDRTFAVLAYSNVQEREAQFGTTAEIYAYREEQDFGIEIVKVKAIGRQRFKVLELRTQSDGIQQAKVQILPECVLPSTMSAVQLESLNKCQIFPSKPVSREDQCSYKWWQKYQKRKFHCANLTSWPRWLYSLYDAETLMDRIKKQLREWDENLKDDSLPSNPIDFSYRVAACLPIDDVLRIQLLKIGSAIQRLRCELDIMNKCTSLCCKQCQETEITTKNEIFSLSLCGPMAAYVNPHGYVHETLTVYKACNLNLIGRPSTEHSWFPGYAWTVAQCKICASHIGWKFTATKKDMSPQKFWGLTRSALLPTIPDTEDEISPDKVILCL
MEASURED_PARAMETER: pIC50
One number for each entry, as −log10 of the molar value.

Recall the recorded pIC50 for "NS(=O)(=O)c1ccc(S(=O)(=O)Nc2cccc3c(Cl)c[nH]c23)cc1" with Protein cereblon (Homo sapiens, UniProt Q96SW2) and state it.
6.44
